// provenance: the Human Domainome abundance scans (Beltran et al. 2025)

B1: Arginine-glutamic acid dipeptide repeats protein, residues 502 to 543; numbered along this chain, Q9P2R6 (parent)
chain: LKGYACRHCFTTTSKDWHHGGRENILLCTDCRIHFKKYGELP

variants of: B1; assay: abundance fitness (aPCA) (normalised: wild type 0, dead -1); higher = more abundant; growth selection in yeast, the domain comes from the species named; details: Homo sapiens
Quantity: abundance fitness

[[record]]
sequence_code = "LKGYLCRHCFTTTSKDWHHGGRENILLCTDCRIHFKKYGELP [A5L]"
quantity = "abundance fitness"
obs_value = -0.018

[[record]]
sequence_code = "LKGYACRHCFTTTSKDWHHGGRENITLCTDCRIHFKKYGELP [L26T]"
quantity = "abundance fitness"
obs_value = -0.05

[[record]]
sequence_code = "LKGYACRHCFTTQSKDWHHGGRENILLCTDCRIHFKKYGELP [T13Q]"
quantity = "abundance fitness"
obs_value = -0.039

[[record]]
sequence_code = "LKGYACRHCFTTYSKDWHHGGRENILLCTDCRIHFKKYGELP [T13Y]"
quantity = "abundance fitness"
obs_value = -0.223

[[record]]
sequence_code = "LKGYACRHCFTKTSKDWHHGGRENILLCTDCRIHFKKYGELP [T12K]"
quantity = "abundance fitness"
obs_value = -0.135

[[record]]
sequence_code = "LKGYACRHCFTTTSKDWHMGGRENILLCTDCRIHFKKYGELP [H19M]"
quantity = "abundance fitness"
obs_value = 0.008

[[record]]
sequence_code = "LKGYACRHCFTTTSKDWHHGGRENILLCTDCRIHWKKYGELP [F35W]"
quantity = "abundance fitness"
obs_value = 0.001

[[record]]
sequence_code = "LKGYACRHCFTTTSKDWHHGRRENILLCTDCRIHFKKYGELP [G21R]"
quantity = "abundance fitness"
obs_value = -0.369

[[record]]
sequence_code = "LKGYACVHCFTTTSKDWHHGGRENILLCTDCRIHFKKYGELP [R7V]"
quantity = "abundance fitness"
obs_value = -0.098

[[record]]
sequence_code = "LKGYACRHCFTTTSKDWHHGGRENILLCTDCRIHFKKMGELP [Y38M]"
quantity = "abundance fitness"
obs_value = -0.117

[[record]]
sequence_code = "LKGYACRHCFTTTSKDWHHGGREKILLCTDCRIHFKKYGELP [N24K]"
quantity = "abundance fitness"
obs_value = -0.157

